Catalogue of compounds with associated pEC50
# Experimental System: AMPK complex 1 (containing alpha1beta1gamma1) (Homo sapiens, UniProt Q13131+Q9Y478)
# Construct: GST (Glutathion S transferase) (N); virus made in Sf9, expression in High Five cells
# Sequence (Q13131 whole entry): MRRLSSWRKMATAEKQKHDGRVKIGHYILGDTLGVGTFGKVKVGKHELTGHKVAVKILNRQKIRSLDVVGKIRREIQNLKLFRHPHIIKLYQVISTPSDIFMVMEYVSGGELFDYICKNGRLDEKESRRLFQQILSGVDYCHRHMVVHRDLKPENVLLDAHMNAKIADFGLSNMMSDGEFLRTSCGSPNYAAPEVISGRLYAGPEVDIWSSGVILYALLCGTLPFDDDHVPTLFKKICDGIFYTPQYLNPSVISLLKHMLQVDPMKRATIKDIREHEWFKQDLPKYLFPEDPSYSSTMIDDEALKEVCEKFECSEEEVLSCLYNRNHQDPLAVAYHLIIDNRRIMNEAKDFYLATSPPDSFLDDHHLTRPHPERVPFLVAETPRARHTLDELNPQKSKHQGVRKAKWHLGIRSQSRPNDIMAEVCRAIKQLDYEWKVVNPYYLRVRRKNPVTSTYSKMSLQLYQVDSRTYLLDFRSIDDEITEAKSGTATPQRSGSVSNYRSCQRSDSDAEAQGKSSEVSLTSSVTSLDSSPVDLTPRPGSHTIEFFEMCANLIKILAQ
# Sequence (Q9Y478 whole entry): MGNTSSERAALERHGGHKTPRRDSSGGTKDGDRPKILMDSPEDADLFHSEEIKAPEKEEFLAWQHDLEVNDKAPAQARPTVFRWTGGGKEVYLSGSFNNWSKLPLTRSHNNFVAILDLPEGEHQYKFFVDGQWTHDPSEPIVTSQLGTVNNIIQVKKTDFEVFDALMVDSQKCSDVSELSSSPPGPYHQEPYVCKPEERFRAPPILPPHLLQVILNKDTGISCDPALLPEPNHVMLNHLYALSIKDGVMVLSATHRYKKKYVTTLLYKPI
# Sequence (P54619 whole entry partner): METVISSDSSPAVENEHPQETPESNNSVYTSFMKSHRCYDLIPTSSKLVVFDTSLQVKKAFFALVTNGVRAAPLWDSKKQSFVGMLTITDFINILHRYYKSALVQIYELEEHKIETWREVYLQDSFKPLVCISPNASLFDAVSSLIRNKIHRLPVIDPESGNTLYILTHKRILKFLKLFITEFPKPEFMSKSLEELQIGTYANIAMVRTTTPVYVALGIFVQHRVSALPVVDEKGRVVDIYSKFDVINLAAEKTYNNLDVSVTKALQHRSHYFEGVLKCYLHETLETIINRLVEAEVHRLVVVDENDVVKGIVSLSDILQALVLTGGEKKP
# Experiment Description: In vitro AMPK activation assay (ADP-Glo Kinase Assay)
# Study Conditions: 30 μM ATP, 1 μM peptide, 60 min, room temperature
pEC50 field: float, defined as -log10 of concentration (mol/L).

Here are 2 compounds together with their reported answers.
>  <Compound>
CC(C)S(C)(=O)=Nc1ccc(-c2ccc(-c3nc4[nH]c(O[C@@H]5CO[C@H]6[C@@H]5OC[C@H]6O)nc4cc3Cl)cc2)cc1 (stereo partly drawn)

>  <Quantitative Readout>
7.47

$$$$
>  <Compound>
C[S@](=O)(=NC(=O)c1ccc(-c2nc3[nH]c(O[C@@H]4CO[C@H]5[C@@H]4OC[C@H]5O)nc3cc2Cl)cc1)c1ccccc1

>  <Quantitative Readout>
5.92

$$$$

Attention now shifts to the item below.
// query pEC50 value for entry CS(C)(=O)=NC(=O)c1ccc(-c2ccc(-c3nc4[nH]c(O[C@@H]5CO[C@H]6[C@@H]5OC[C@H]6O)nc4cc3Cl)cc2)cc1
8.70

* * *

# Experimental System: AMPK complex 1 (containing alpha1beta1gamma1) (Homo sapiens, UniProt Q13131+Q9Y478)
# Construct: GST (Glutathion S transferase) (N); virus made in Sf9, expression in High Five cells
# Experiment Description: In vitro AMPK activation assay (ADP-Glo Kinase Assay)
# Study Conditions: 30 μM ATP, 1 μM peptide, 60 min, room temperature
Assay Readout: pEC50
pEC50 field: float, defined as -log10 of concentration (mol/L).

>  <Smiles Text>
C[S@@](=O)(=NC(=O)c1ccc(-c2nc3[nH]c(O[C@@H]4CO[C@H]5[C@@H]4OC[C@H]5O)nc3cc2Cl)cc1)c1ccccc1

>  <pEC50>
6.61

$$$$
>  <Smiles Text>
CCS(=O)(CC)=Nc1ccc(-c2ccc(-c3nc4[nH]c(O[C@@H]5CO[C@H]6[C@@H]5OC[C@H]6O)nc4cc3Cl)cc2)cc1

>  <pEC50>
8.52

$$$$
>  <Smiles Text>
CS(C)(=O)=NCc1ccc(-c2ccc(-c3nc4[nH]c(O[C@@H]5CO[C@H]6[C@@H]5OC[C@H]6O)nc4cc3Cl)cc2)cc1

>  <pEC50>
7.54

$$$$
>  <Smiles Text>
CS(C)(=O)=Nc1ccc(-c2ccc(-c3nc4[nH]c(O[C@@H]5CO[C@H]6[C@@H]5OC[C@H]6O)nc4cc3Cl)cc2)nn1

>  <pEC50>
6.52

$$$$
>  <Smiles Text>
CS(C)(=N)=Nc1ccc(-c2ccc(-c3nc4[nH]c(O[C@@H]5CO[C@H]6[C@@H]5OC[C@H]6O)nc4cc3Cl)cc2)cc1

>  <pEC50>
9.00

$$$$

Attention now shifts to the item below.
Please provide the recorded pEC50 for CS(C)(=O)=Nc1ccnc(-c2ccc(-c3nc4[nH]c(O[C@@H]5CO[C@H]6[C@@H]5OC[C@H]6O)nc4cc3Cl)cc2)c1 , tested on AMPK complex 1 (containing alpha1beta1gamma1) (Homo sapiens, UniProt Q13131+Q9Y478).
7.33

* * *

# Experimental System: AMPK complex 1 (containing alpha1beta1gamma1) (Homo sapiens, UniProt Q13131+Q9Y478)
# Construct: GST (Glutathion S transferase) (N); virus made in Sf9, expression in High Five cells
# Experiment Description: In vitro AMPK activation assay (ADP-Glo Kinase Assay)
# Study Conditions: 30 μM ATP, 1 μM peptide, 60 min, room temperature
Catalogue of compounds with associated EC50
The response must be a number in nM with no trailing unit.

Here are 2 compounds together with their reported answers.
>  <Compound>
CS(C)(=O)=NCc1cccc(-c2ccc(-c3nc4[nH]c(O[C@@H]5CO[C@H]6[C@@H]5OC[C@H]6O)nc4cc3Cl)cc2)n1

>  <Experimental System>
AMPK complex 1 (containing alpha1beta1gamma1) (Homo sapiens, UniProt Q13131+Q9Y478)

>  <EC50 / nM>
87

$$$$
>  <Compound>
CS(=N)(=O)c1ccc(-c2ccc(-c3nc4[nH]c(O[C@@H]5CO[C@H]6[C@@H]5OC[C@H]6O)nc4cc3Cl)cc2)cc1 (stereo partly drawn)

>  <Experimental System>
AMPK complex 1 (containing alpha1beta1gamma1) (Homo sapiens, UniProt Q13131+Q9Y478)

>  <EC50 / nM>
10

$$$$

// query EC50 value for entry O=C(N=S1(=O)CCOCC1)c1ccc(-c2nc3[nH]c(O[C@@H]4CO[C@H]5[C@@H]4OC[C@H]5O)nc3cc2Cl)cc1
43

// query EC50 value for entry CN=S(C)(=O)c1ccc(N2CCN(c3nc4[nH]c(O[C@@H]5CO[C@H]6[C@@H]5OC[C@H]6O)nc4cc3Cl)CC2)cc1 (stereo partly drawn)
725

// query EC50 value for entry N=S1(=O)CCC(c2ccc(-c3nc4[nH]c(O[C@@H]5CO[C@H]6[C@@H]5OC[C@H]6O)nc4cc3Cl)cc2)CC1 (single isomer, unassigned) [Example 54]
114

// query EC50 value for entry CS(C)(=O)=NCc1cccc(-c2ccc(-c3nc4[nH]c(O[C@@H]5CO[C@H]6[C@@H]5OC[C@H]6O)nc4cc3Cl)cc2)c1
704

// query EC50 value for entry CS(=O)(=NC#N)c1ccc(-c2ccc(-c3nc4[nH]c(O[C@@H]5CO[C@H]6[C@@H]5OC[C@H]6O)nc4cc3Cl)cc2)cc1 (stereo partly drawn)
1

// query EC50 value for entry CN=S(C)(=O)c1ccc(-c2ccc(-c3nc4[nH]c(O[C@@H]5CO[C@H]6[C@@H]5OC[C@H]6O)nc4cc3Cl)cc2)cc1 (stereo partly drawn)
4

// query EC50 value for entry N=S1(=O)CCN(c2ccc(-c3nc4[nH]c(O[C@@H]5CO[C@H]6[C@@H]5OC[C@H]6O)nc4cc3Cl)cc2)CC1
22
